- runDescription: yeast display, Sf9 membrane polyspecificity reagent, FACS + sequencing; frameworks hold sequencing errors

sequenceCode	polyreactivity (PSR sort gate)
QVQLVESGGGLVQAGGSLRLTSAASGFTFPYTDMGWYRPAPGKERELVADISSGGSTYYADSVKGRFTISRDNAKINVYLQMISLKPEDTAVYYCAAREAYSIRIYQGFGYWGQGTQVTVSS	low polyreactivity
QVQLVESGGGLVQAGGSLRLSCAASGSTLTYYTMGWYRQAPGKERELVARISWSSGRTYYADSVKGRFTISRDNAKNTVYLQMNSLKPEDTAVYYCNADRTYYRGLDYWGQGTQVTVSS	high polyreactivity
QVQLVESGGGLVQAGGSLRLSCAASGRIFGGNAMGWYRQAPGKERELVAAITTRGGSTYADSVKGRFTISRDNAKNTVYLQMNSLKPEDTAVYYCNKRYVIRRRGYDYWGQGTQVTVSS	low polyreactivity
QVQLVESGGGLVQAGGSLRLSCAASGFIFTDNVMGWYRQAPGKERELVAAISRGGGSTYYADSVKGRFTISRDNAKNTDYLQMNSLKPEDTAVYYCAAPTARSRSERDYWGQGTQVTVSS	high polyreactivity
QVQLVESGGGLVQAGGSLRLSCAASGFTLIADDMGGYRQAPGKERELVAGISSGDSTDYADSVKGRFTISRDNAKNTVYVQMNSLTPEDTAVYYCAATWYGDYSRYDFYYWGQGTQVTVSS	low polyreactivity
